# ASSAY SUMMARY: PAMPA (parallel artificial membrane permeability assay)
# Type: in vitro ADME
# MEASUREMENT CONTEXT: PAMPA, pH 6.5
Starred links: 1 amine or outer side, 2 acyl side, 3 side chain; linkers in the order of their positions; H or OH if unused. Positions of bridges follow the written chain, without caps; N, C: chain ends. Non-standard residues stand in square brackets, D forms with d. Residues, ends and D or L forms follow the SMILES beside them. ξ: configuration not given here. *: point of attachment. Arg(Me2s) = CN=C(NC)NCCC[C@H](N)C(=O)O; NMeF = CN[C@@H](Cc1ccccc1)C(=O)O; NMeI = CC[C@H](C)[C@H](NC)C(=O)O; NMeβAla = CN(CCC(=O)[*:2])[*:1]; NMeL = CN[C@@H](CC(C)C)C(=O)O; ξNMeF = CNC(Cc1ccccc1)C(=O)O; NMeV = CN[C@H](C(=O)O)C(C)C; NMeA = CN[C@@H](C)C(=O)O; Piperidide = C1CCN(*)CC1; dNMeA = CN[C@H](C)C(=O)O; β3hA = C[C@H](N)CC(=O)O; Sar = CNCC(=O)O
Examples of compounds with documented Papp at 18 hours, 50 µM follow.
Numeric only. Scale: nm/s

Worked set:
{"COMPOUND": "CC[C@H](C)[C@@H]1NC(=O)[C@H](CC(C)C)N(C)C(=O)CCN(C)C(=O)C[C@@H](C(=O)N2CCCCC2)NC(=O)[C@H](Cc2ccccc2)N(C)C(=O)[C@H](CC(C)C)NC(=O)CN(C)C(=O)[C@H]([C@@H](C)O)NC(=O)[C@H](C)N(C)C(=O)[C@H](C(C)C)N(C)C1=O [DP-118] ([NMeβAla][NMeL]I[NMeV][NMeA]T[Sar]L[NMeF]D-Piperidide; lactam N-10)", "Papp at 18 hours, 50 µM [nm/s]": 140}
{"COMPOUND": "C/N=C(\\NC)NCCC[C@@H]1NC(=O)[C@@H]2CCCN2C(=O)[C@H](CC(C)C)NC(=O)[C@H](CC(C)C)N(C)C(=O)[C@H](Cc2ccccc2)NC(=O)CN(C)C(=O)[C@H](CC(C)C)N(C)C(=O)[C@H](Cc2ccccc2)NC(=O)CN(C)C(=O)C[C@@H](C(=O)N(C)[C@@H](Cc2ccccc2)C(=O)N[C@@H](C)C(=O)N2CCCCC2)NC(=O)[C@H](CC(C)C)NC1=O [DP-597] ([Sar]F[NMeL][Sar]F[NMeL]LP[Arg(Me2s)]LD[NMeF]A-Piperidide; lactam N-11)", "Papp at 18 hours, 50 µM [nm/s]": 17}
{"COMPOUND": "CC[C@H](C)[C@@H]1NC(=O)[C@H](C)N(C)C(=O)[C@H](CC(C)C)N(C)C(=O)[C@H](Cc2ccccc2)NC(=O)[C@H]([C@@H](C)O)NC(=O)[C@H](C(C)C)N(C)C(=O)[C@H](C)N(C)C(=O)CN(C)C(=O)[C@@H](C(C)C)NC(=O)C[C@@H](C(=O)N(C)C(Cc2ccccc2)C(=O)N(C)[C@@H](Cc2ccccc2)C(=O)N[C@@H](C)C(=O)N2CCCCC2)NC1=O (some centres unmarked) [DP-293] ([dV][Sar][NMeA][NMeV]TF[NMeL][NMeA]ID[ξNMeF][NMeF]A-Piperidide; lactam N-10)", "Papp at 18 hours, 50 µM [nm/s]": 450}
{"COMPOUND": "CC[C@H](C)[C@H]1C(=O)N[C@H](C(=O)N2CCCCC2)CC(=O)N(C)[C@H](C)C(=O)N[C@@H](Cc2ccccc2)C(=O)N(C)[C@@H](C)C(=O)N(C)[C@@H](CC(C)C)C(=O)N[C@@H]([C@@H](C)O)C(=O)N(C)CC(=O)N(C)[C@@H](C(C)C)C(=O)N[C@@H](C)C(=O)N1C [DP-142] ([dNMeA]F[NMeA][NMeL]T[Sar][NMeV]A[NMeI]D-Piperidide; lactam N-10)", "Papp at 18 hours, 50 µM [nm/s]": 40}

Fill in: Papp at 18 hours, 50 µM of CC[C@H](C)[C@@H]1NC(=O)[C@H](CC(C)C)N(C)C(=O)[C@H](Cc2ccccc2)N(C)C(=O)[C@@H](C(C)C)NC(=O)C[C@H](C)NC(=O)[C@H](CC(C)C)N(C)C(=O)[C@H](C)N(C)C(=O)[C@H]([C@@H](C)O)NC(=O)[C@H](Cc2ccccc2)N(C)C(=O)[C@H](CC(C)C)N(C)C1=O [DP-781] (cyclo(I[NMeL][NMeF]T[NMeA][NMeL][β3hA][dV][NMeF][NMeL])) is ___ 290
